Tested on: A549 NSCLC
run_description: NCI tumour cell line growth inhibition, 48 h
Reported TGI values for a set of compounds
quantity: TGI (µM)

{"columns": ["compound", "value_modifier", "measured_result"],
 "data": [
  ["CC1CC(c2ccc([N+](=O)[O-])cc2)=Nc2ccccc2S1=O (stereo not given)", "=", 41.4],
  ["CC1=C(C(=O)NCc2ccccc2)C(c2ccccc2O)C(C(=O)NCc2ccccc2)=C(C)N1", "=", 44.6],
  ["COc1ccc(-c2cc3c(N)ncnc3o2)cc1", ">", 25],
  ["NC(N)=N/N=C/c1c(-c2ccc(Cl)cc2)nc2n1CCS2", "=", 22.2],
  ["Nc1nc(Cl)c2ncn(Cc3ccc(-c4ccc(CCl)cc4)cc3)c2n1", ">", 100]
]}
